TGI overview
Tested on: HCT-116 colon
Assay: NCI tumour cell line growth inhibition, 48 h
experimental-endpoint: TGI (µM)

compound	experimental-endpoint	qualifier-operator	meas-value
O=C(/C=C/c1c(O)ccc2ccccc12)c1ccc2ccccc2c1	TGI	>	100
COc1ccnc2c1C(=O)c1nc3ccccc3c3ccnc-2c13	TGI	=	1.03
COc1cccc(CCn2c(N)c(-c3ccccc3)c3ccc([N+](=O)[O-])cc3c2=O)c1	TGI	=	10
Cn1ccc(C(=O)NCCOCCNC(=O)c2ccn(C)c(=O)c2O)c(O)c1=O	TGI	>	100
CC1(C)OCC2OC3(c4nc(C#N)c(N)o4)OC(C)(C)OC3C2O1 (stereo not given)	TGI	>	100
COc1c(C)c2c(c(C)c1Cl)Oc1c(C=O)c(O)c(Cl)c(C)c1C(=O)O2	TGI	=	61.9
CN=NN(C)C(=O)NC	TGI	>	100
Cc1cccc(NC(=O)/C=C/c2ccc(N(CCC#N)CCC#N)cc2C)c1	TGI	>	100
CC1(C)c2ccccc2C(=O)C12CCC(=O)CC2	TGI	>	100
CO[C@H]1[C@@H](O)[C@@H](C)O[C@@H](O[C@H]2CC[C@@]3(C)[C@H](CC[C@@H]4[C@@H]3CC[C@]3(C)[C@@H](C5=CC(=O)OC5)[C@@H](OC(C)=O)C[C@]43O)C2)[C@@H]1O	TGI	=	0.109

###

System: SR leukemia
Experiment: NCI tumour cell line growth inhibition, 48 h
experimental-endpoint: log10(TGI) (log10 of the value in µM)

compound	log10(TGI)
O=C(CCCN1CC=C(n2c(=O)[nH]c3ccccc32)CC1)c1ccc(F)cc1	1.95
CCCCCC(C[N+]1(C)CCOCC1)C(=O)/C=C/c1ccccc1 (stereo unspecified)	1.59
COc1cc2cn3c4ccc(O)cc4[nH]c(=O)c3c2cc1OC	0.25
Cc1c[n+](Cc2ccc3ccccc3c2)cn1Cc1ccc2ccccc2c1	0.55
Cc1[nH][nH]c(=O)c1C=Nc1ccc(-c2nc3ccccc3[nH]2)cc1	1.99
Cc1ccc(S(=O)(=O)C2=Cc3ccc(C(F)(F)F)cc3C2(O)c2cccc(C(F)(F)F)c2)cc1 (stereo unspecified)	0.91

###

Tested on: MOLT-4 leukemia
Experiment: NCI tumour cell line growth inhibition, 48 h; in the data active = GI50 below about 0.43 µM; inactive = the rest
Outcome codes: y for active, n for inactive

molecule	assigned-class
CCN(CC)CCNCC(=O)Oc1ccc(/C=C/C(=O)CC(=O)/C=C/c2ccc(OC(=O)CNCCN(CC)CC)c(OC)c2)cc1OC	n
O=C(Nc1cccc(Cl)c1Cl)c1cccc(NC2=C(Cl)C(=O)N(Cc3ccccc3)C2=O)c1	n
CN(C)Cc1c[nH]c2c1C(=O)c1c(c(O)c3ccccc3c1O)C2=O	n
COC(=O)[C@@H](NC(=O)[C@@H](OC)[C@@H]1Cc2cc3cc(OC4CC(OC5CC(O)C(O)C(C)O5)C(O)C(C)O4)c(C)c(O)c3c(O)c2C(=O)[C@H]1OC1CC(OC2CC(OC3CC(C)(O)C(O)C(C)O3)C(O)C(C)O2)C(O)C(C)O1)C(C)C (stereo not given in full)	y
O=C(CCCN1CC=C(n2c(=O)[nH]c3ccccc32)CC1)c1ccc(F)cc1	n

###

System: HS 578T breast
Assay: NCI tumour cell line growth inhibition, 48 h

compound	TGI
Cc1cn(C2CC(ON3C(=O)c4ccccc4C3=O)C(CO)O2)c(=O)[nH]c1=O (stereo not given)	> 10 µM
C=CCN1C[C@H](C)N([C@H](c2ccc(C(=O)N(CC)CCO)cc2)c2cccc(OC)c2)C[C@H]1C	> 100 µM
Cc1cccc(/C=N/NC(=S)NCCc2ccccn2)n1	> 100 µM
O=C(O)c1nc(-c2ccccn2)c(-c2ccccn2)nc1C(=O)O	> 72.6 µM
c1ccc2c3ccn4cc5c(cc4c-3nc2c1)CCCC5	21.5 µM
COc1cc(/C=C2\C[C@H]3[C@@H]4CC=C5C[C@@H](O)CC[C@]5(C)[C@H]4CC[C@]3(C)C2=O)cc(OC)c1OC	> 100 µM
C[C@H]1[C@H](C)CC[C@]2(C)CC[C@]3(C)C(=C[C@@H](O)[C@@H]4[C@@]5(C)[C@H](O)[C@@H](O)[C@H](O)C(C)(C)[C@@H]5CC[C@]43C)[C@H]12	> 100 µM
COc1ccnc2c1C(=O)c1nc3ccccc3c3ccnc-2c13	6.44 µM
O=C(O)c1cccc(OCCO)c1	> 100 µM
CCN(CC)CCn1nc(N)c2nc3cc(Cl)ccc3nc21	> 100 µM

###

Listed compounds paired with reported TGI
Test system: SK-OV-3 ovarian
Assay: NCI tumour cell line growth inhibition, 48 h
experimental-endpoint: TGI (µM)

item-smiles	experimental-endpoint	measure-unit	qualifier-operator	meas-value
CC1=C(Br)C(Br)=C(C)S1=O	TGI	µM	=	65.5
CCCCCc1c(C)[nH]c(/C=C2\N=C(c3ccc[nH]3)C=C2CC)c1C	TGI	µM	=	0.383
Cc1cccc(/C=N/NC(=S)NCCc2ccccn2)n1	TGI	µM	=	43.5
COc1cc(/C=C2\C(=O)Nc3ccc(F)cc32)cc(OC)c1OC	TGI	µM	>	100
COc1ccccc1NC(=O)C1=C(C)NC(C)=C(C(=O)Nc2ccccc2OC)C1c1ccc([N+](=O)[O-])cc1	TGI	µM	>	100
NC1CCCC[C@H]1N.N[C@@H]1CCCC[C@@H]1N.O=C(P(=O)([O-])[O-])P(=O)([O-])[O-].[Pt+4].[Pt+4]	TGI	µM	>	100

###

List of TGI values.
Test system: M19-MEL melanoma
Assay: NCI tumour cell line growth inhibition, 48 h

compound	target-entity	TGI
COc1c(C)c2c(c(C)c1Cl)Oc1c(C=O)c(O)c(Cl)c(C)c1C(=O)O2	M19-MEL melanoma	> 100 µM
C/C(=C1/CCCC2(N=NCC2c2ccccc2)C1=O)c1ccccc1 (stereo unspecified)	M19-MEL melanoma	65 µM
Nc1ccc(C(=O)NN2C(=O)C(Cl)C2c2ccccc2Cl)cc1 (stereo unspecified)	M19-MEL melanoma	20.5 µM
COC(=O)C12C3C4C5(C(=O)OC)C(C1C35C(=O)N(C(C)C)C(C)C)C42C(=O)N(C(C)C)C(C)C (stereo unspecified)	M19-MEL melanoma	> 50 µM
O=C1NC(=O)C(CCO)(c2ccccc2)C(=O)N1	M19-MEL melanoma	> 100 µM
N#CC(NNC(=O)Cc1ccccc1)c1ccccc1O (stereo unspecified)	M19-MEL melanoma	27 µM
O=C1C(Cl)C(c2ccccc2)N1n1cnc2ccccc2c1=O (stereo unspecified)	M19-MEL melanoma	> 100 µM
COc1cc2c(cc1OCc1ccccc1)CNCC2	M19-MEL melanoma	> 100 µM
N#CC(/C(=N/NC(=O)C(=O)NN)C(=O)NC12CC3CC(CC(C3)C1)C2)c1ccccc1 (stereo unspecified)	M19-MEL melanoma	> 100 µM
COC(=O)C1OC(Oc2cc(O)c3c(=O)cc(-c4ccc(O)cc4)oc3c2)C(O)C(O)C1O (stereo unspecified)	M19-MEL melanoma	> 100 µM
Clc1ccc(-c2c(C3=NCCN3)nnn2-c2ccc(Cl)cc2)cc1	M19-MEL melanoma	30.5 µM

###

System: HL-60(TB) leukemia
Assay: NCI tumour cell line growth inhibition, 48 h
Below, each entry is listed alongside its reported TGI.

compound	measure-unit	qualifier-operator	TGI
CCCCCc1c(C)[nH]c(/C=C2\N=C(c3ccc[nH]3)C=C2CC)c1C	µM	=	0.0814
Nc1c(C(=O)N/N=C/c2ccc(-c3ccc(Cl)cc3)o2)cnn1-c1ccnc2c(C(F)(F)F)cccc12	µM	>	100
COc1c(C)c2c(c(C)c1Cl)Oc1c(C=O)c(O)c(Cl)c(C)c1C(=O)O2	µM	=	57.8
COn1cc(C=O)c2ccccc21	µM	=	1.52
CC1=NC(=Cc2ccc(O)cc2)C(=O)N1n1c(-c2ccccc2)nc2ccccc2c1=O	µM	>	100
CC(=O)OCC1OC([S-])C(OC(C)=O)C(OC(C)=O)C1OC(C)=O.CC[PH+](CC)CC.CC[PH+](CC)CC.[Au].[Au] (stereo not given)	µM	=	0.0214
Cc1ccc2nc(-c3ccc(N)c(I)c3)sc2c1	µM	=	51
COc1ccc2c(c1C)C(=O)C(O)(CC=C(C)C)O2 (stereo not given)	µM	>	100
COC(=O)[C@@H](NC(=O)[C@@H](OC)[C@@H]1Cc2cc3cc(OC4CC(OC5CC(O)C(O)C(C)O5)C(O)C(C)O4)c(C)c(O)c3c(O)c2C(=O)[C@H]1OC1CC(OC2CC(OC3CC(C)(O)C(O)C(C)O3)C(O)C(C)O2)C(O)C(C)O1)C(C)C (stereo not given in full)	µM	>	32.5
CC(C)=CCS(=O)c1ccccc1NC1=CC(=O)CC(C)(C)C1 (stereo not given)	µM	>	100
N#CC(/C(=N/NC(=O)C(=O)NN)C(=O)NC12CC3CC(CC(C3)C1)C2)c1ccccc1 (stereo not given)	µM	>	100
COC(=O)C1=C(C)NC(C)=C(C(=O)OC)C1c1ccc(/[N+]([O-])=C/c2ccccc2)cc1	µM	=	63.2
CCOC(=O)c1nc2c(Cl)c3ncccc3cc2[nH]c1=O	µM	>	100
NC(N)=N/N=C/c1cc(Cl)cc(Cl)c1O	µM	>	100
O=C(/C=C/c1c(O)ccc2ccccc12)c1ccc2ccccc2c1	µM	>	100
O=C(Nc1cccc(Cl)c1Cl)c1cccc(NC2=C(Cl)C(=O)N(Cc3ccccc3)C2=O)c1	µM	=	30.7
c1ccc2c3ccn4cc5c(cc4c-3nc2c1)CCCC5	µM	=	3.81
CN1CCOC1(C)CO (stereo not given)	µM	>	100
CCN(CC)CCNCC(=O)Oc1ccc(/C=C/C(=O)CC(=O)/C=C/c2ccc(OC(=O)CNCCN(CC)CC)c(OC)c2)cc1OC	µM	=	91.8
COc1ccc(-n2cc(-c3ccc(Cl)c(Cl)c3)nc2SCc2cccc(C#N)c2)cc1	µM	>	100
